Where these numbers come from: ChEMBL document CHEMBL3259750

Exercise: state measured zone of inhibition at 250 µg/mL for each of the compounds provided.
Test system: Staphylococcus aureus
Assay: Antibacterial activity against Staphylococcus aureus ATCC 25923 assessed as diameter of growth inhibition zone at 0.25 mg/ml after 24 hrs by disk diffusion assay
Assay type: functional
Settings: ATCC 25923, 24 h, read-out: DIZ

Query :: Tell me reported zone of inhibition at 250 µg/mL for CCN(CC)[c+]1sc2c(s1)C(c1ccc(Cl)cc1)Oc1ccccc1-2.F[B-](F)(F)F (stereo not given) , tested with Staphylococcus aureus.
Result :: 7.33 mm

Query :: Tell me reported zone of inhibition at 250 µg/mL for CCN(CC)[c+]1sc2c(s1)C(c1ccc(OC)cc1)Oc1ccc(Br)cc1-2.[O-][Cl+3]([O-])([O-])[O-] (stereo not given) , tested with Staphylococcus aureus.
Result :: 7.66 mm

Query :: Tell me reported zone of inhibition at 250 µg/mL for CCN(CC)[c+]1sc2c(s1)C(c1ccc(Cl)cc1)Oc1c(I)cc(I)cc1-2.[O-][Cl+3]([O-])([O-])[O-] (stereo not given) , tested with Staphylococcus aureus.
Result :: 8.33 mm

Query :: Tell me reported zone of inhibition at 250 µg/mL for CCN(CC)[c+]1sc2c(s1)C(c1ccc(Cl)cc1)Oc1ccc(Br)cc1-2.[O-][Cl+3]([O-])([O-])[O-] (stereo not given) , tested with Staphylococcus aureus.
Result :: 15 mm

Query :: Tell me reported zone of inhibition at 250 µg/mL for CCN(CC)[c+]1sc2c(s1)C(c1ccc(Cl)cc1)Oc1c(Br)cc(Br)cc1-2.F[B-](F)(F)F (stereo not given) , tested with Staphylococcus aureus.
Result :: 17.7 mm
